tested on: non-caged complement (5′ CGAACCTGGTCGAAATCAG 3′); experiment: Melting temperatures of caged and non-caged PCR primers with complementary DNA; format: binding; details: after 8 minutes irradiation at 365 nm
[cagedT] = caged thymidine: thymidine bearing a photolabile caging group, removed by UV irradiation at 365 nm; [cageT] = thymidine carrying a photolabile caging group (caged thymidine), removed by 365 nm UV light

| Substance | Target | Scale Unit | Mp/° C. +UV |
| --- | --- | --- | --- |
| P7: caged primer 5′ CTGATTTCGACCAGGTTCG 3′, SEQ ID NO 9, probably four caged thymidines (DNA, [cagedT] at 2, 5, 7, 17, backbone not given here; PCR primer) | non-caged complement (5′ CGAACCTGGTCGAAATCAG 3′) | °C | 64.2 |
| P5: primer with three caging groups distributed throughout the DNA oligomer, SEQ ID NO 7 (DNA CTGATTTCGACCAGGTTCG; DNA, [cageT] at 2, 7, 17, backbone not given here) | non-caged complement (5′ CGAACCTGGTCGAAATCAG 3′) | °C | 64.2 |
| P4: P3 with an additional caged thymidine close to the 5′ terminus, SEQ ID NO 6 (DNA CTGATTTCGACCAGGTTCG; DNA, [cageT] at 2, 7, backbone not given here) | non-caged complement (5′ CGAACCTGGTCGAAATCAG 3′) | °C | 63.8 |
| P3: primer 5′ CTGATTTCGACCAGGTTCG 3′ with a single caged thymidine, SEQ ID NO 5 (DNA, [cageT] at 7, backbone not given here) | non-caged complement (5′ CGAACCTGGTCGAAATCAG 3′) | °C | 64.1 |
